ASSAY EXPLANATION: Intrinsic solubility of the compound after 8 hrs by potentiometric titration method
Type: physicochemical
CONDITION NOTES: read-out: Intrinsic_solubility
Would you mind telling me the reported solubility at 8 h of each entry?
Provide the reading as a plain figure in mg/mL.

Q: Name the recorded solubility at 8 h of the item CCN1CCN(Cc2oc3c(c2C)C(=O)C(=O)c2cc(C)c(C)cc2-3)CC1 in your answer.
A: 0.082

Q: Look up solubility at 8 h of Cc1cc2c(cc1C)-c1oc(CN3CCN(C)CC3)c(C)c1C(=O)C2=O and report it.
A: 0.11

Q: Identify the reported solubility at 8 h for the following entry. Cc1cc2c(cc1C)-c1oc(CN3CCN(CCO)CC3)c(C)c1C(=O)C2=O
A: 0.061

====

Tested on: L02
ASSAY EXPLANATION: Cytotoxicity against NQO1-deficient human L02 cells assessed as reduction in cell viability incubated for 72 hrs by MTT assay
Assay type: cell-based
CONDITION NOTES: L02, 72 h
Answer each item with its documented IC50.
Give the value in µM but do not write µM after it.

Q: // fetch IC50 for Cc1cc2c(cc1C)-c1oc(CN3CCN(C4CC4)CC3)c(C)c1C(=O)C2=O ; system: L02
A: 34.6

Q: State IC50 (L02) of CC1(C)CCC2=C(O1)c1ccccc1C(=O)C2=O .
A: 9.6

Q: Give the observed IC50 of Cc1cc2c(cc1C)-c1oc(CN3CCOCC3)c(C)c1C(=O)C2=O for L02.
A: 28.5

Q: Please report IC50 with L02 for item Cc1cc2c(cc1C)-c1oc(CN3CCN(CCO)CC3)c(C)c1C(=O)C2=O .
A: 35.8

Q: Specify the recorded IC50 for Cc1cc2c(cc1C)-c1oc(CN3CCN4CCCCC4C3)c(C)c1C(=O)C2=O (stereo unspecified) , system: L02.
A: 31.6

Q: Provide IC50, system L02, entry Cc1cc2c(cc1C)-c1oc(CN3CCN(C)CC3)c(C)c1C(=O)C2=O
A: 36.2

Q: Report the value of IC50 obtained on L02 for Cc1cc2c(cc1C)-c1oc(CN3CCC(N4CCOCC4)CC3)c(C)c1C(=O)C2=O .
A: 28.9

Q: Look up and report measured IC50 (L02) for the following compound: Cc1cc2c(cc1C)-c1oc(CN3CCC(N4CCN(C)CC4)CC3)c(C)c1C(=O)C2=O
A: 29.8

Q: # assay system L02: give IC50 of Cc1cc2c(cc1C)-c1oc(CN3CCCCC3)c(C)c1C(=O)C2=O
A: 45.5

Q: Report value: IC50, system: L02, compound: Cc1cc2c(cc1C)-c1oc(CN3CCC(N4CCCC4)CC3)c(C)c1C(=O)C2=O
A: 31.2

Q: Report IC50 from L02 testing of Cc1cc2c(cc1C)-c1oc(CN3CCN(S(C)(=O)=O)CC3)c(C)c1C(=O)C2=O
A: 31.2

Q: Give reported IC50 for Cc1cc2c(cc1C)-c1oc(CN(C)C)c(C)c1C(=O)C2=O (L02)
A: 46.9

Q: Given CCN1CCN(Cc2oc3c(c2C)C(=O)C(=O)c2cc(C)c(C)cc2-3)CC1 , report its IC50 on L02.
A: 35.8

Q: Give IC50 for this entry on L02: Cc1cc2c(cc1C)-c1oc(CN3CCC(N4CCCCC4)CC3)c(C)c1C(=O)C2=O
A: 40.5

Q: Tell me IC50 of Cc1cc2c(cc1C)-c1oc(CN3CCN4CCCC4C3)c(C)c1C(=O)C2=O (stereo unspecified) when tested on L02.
A: 32.9

Q: For L02, give IC50 of the listed compound: Cc1cc2c(cc1C)-c1occ(C)c1C(=O)C2=O
A: 31.4
